# Tested on: HCT-116
# Protocol Summary: NCI tumour cell line growth inhibition, 48 h
Activity calls are given as the source filed them. Cut-off read from the data, not from the text of the source: active = GI50 up to about 1.1 µM and inactive = higher. *1 amine or outer side, *2 acyl side, *3 side chain or, on linkers, in order; H or OH if unused. Where a SMILES comes first, the peptide text is derived from it. Bridges are numbered along the chain shown (N, C = ends). Roman numbers before positions name the chains, in order. [ ]: non-standard residue; d: D form. Actinocin(9to1) = Cc1c2oc3c(C)ccc(C(=O)[*:1])c3nc-2c(C(=O)[*:2])c(N)c1=O; NMeV = CN[CH](C(=O)O)C(C)C; Sar = CNCC(=O)O
Outcomes: active, inactive

[
  {
    "Compound": "COC(=O)NC(=O)c1cn(C2CCCCC2)c(=O)[nH]c1=O",
    "Assayed Target": "HCT-116",
    "Assigned Class": "inactive"
  },
  {
    "Compound": "NC1=Nc2ccccc2Sc2nc3ccccc3n21",
    "Assayed Target": "HCT-116",
    "Assigned Class": "inactive"
  },
  {
    "Compound": "CN(NC(=O)c1cccs1)C1=NCCCN1",
    "Assayed Target": "HCT-116",
    "Assigned Class": "inactive"
  },
  {
    "Compound": "CC(=O)c1ccccc1NC(=O)C(=O)C(C(=O)c1ccc2ccccc2c1)C1OC(=O)c2ccccc21 (configuration not stated)",
    "Assayed Target": "HCT-116",
    "Assigned Class": "inactive"
  },
  {
    "Compound": "CC(=O)Oc1cc2c(n(C)c1=O)CCC2",
    "Assayed Target": "HCT-116",
    "Assigned Class": "inactive"
  },
  {
    "Compound": "Clc1sc(Cl)c2c1[C@@H](Cl)C[C@@H]2Cl",
    "Assayed Target": "HCT-116",
    "Assigned Class": "inactive"
  },
  {
    "Compound": "Cc1c2oc3c(C)ccc(C(=O)NC4C(=O)NC(Cc5ccccc5)C(=O)N5CCCC5C(=O)N(C)CC(=O)N(C)C(C(C)C)C(=O)OC4C)c3nc-2c(C(=O)NC2C(=O)NC(Cc3ccccc3)C(=O)N3CCCC3C(=O)N(C)CC(=O)N(C)C(C(C)C)C(=O)OC2C)c(N)c1=O (configuration not stated) (I: TFP[Sar][NMeV] / II: TFP[Sar][NMeV]; ester I:1-I:C, II:1-II:C; linker I:N-II:N via Actinocin(9to1); configuration not given here)",
    "Assayed Target": "HCT-116",
    "Assigned Class": "active"
  },
  {
    "Compound": "Nc1ccnc2c1ncn2[C@H]1C[C@H](O)[C@@H](CO)O1",
    "Assayed Target": "HCT-116",
    "Assigned Class": "inactive"
  },
  {
    "Compound": "NCCn1cnc2nc(NC(=O)c3ccccc3)[nH]c(=O)c21",
    "Assayed Target": "HCT-116",
    "Assigned Class": "inactive"
  },
  {
    "Compound": "CC(=O)NC1C(OCc2ccccc2)OC(CO)C(O)C1OCC(=O)N[C@@H](C)C(=O)N[C@H](CCC(=O)NCCCNc1ccc([N+](=O)[O-])c2[nH]c3ccccc3c(=O)c12)C(N)=O (some centres not stated)",
    "Assayed Target": "HCT-116",
    "Assigned Class": "inactive"
  },
  {
    "Compound": "NCC1(N2CCOCC2)C2CCCC21CO (configuration not stated)",
    "Assayed Target": "HCT-116",
    "Assigned Class": "inactive"
  },
  {
    "Compound": "O=C(/N=N/c1ccccc1Br)NNc1ccccc1Br",
    "Assayed Target": "HCT-116",
    "Assigned Class": "inactive"
  },
  {
    "Compound": "COc1ccc(/C=C2\\C=Cc3ccccc32)cc1OC",
    "Assayed Target": "HCT-116",
    "Assigned Class": "inactive"
  },
  {
    "Compound": "C[N+](C)([O-])Cc1cc(-c2ccccc2)ccc1O",
    "Assayed Target": "HCT-116",
    "Assigned Class": "inactive"
  },
  {
    "Compound": "O=C1C=CC(=O)C2=C1[C@@H](O)C1CC=CC3C(=O)O[C@@H]2C31 (some centres not stated)",
    "Assayed Target": "HCT-116",
    "Assigned Class": "inactive"
  },
  {
    "Compound": "O=C(c1ccco1)C1CC(c2ccc3ccccc3c2O)=NN1c1ccc([N+](=O)[O-])cc1[N+](=O)[O-] (configuration not stated)",
    "Assayed Target": "HCT-116",
    "Assigned Class": "inactive"
  },
  {
    "Compound": "O=C(NC(CO)Cc1ccc(Oc2cc(CC(CO)NC(=O)OCc3ccccc3)ccc2OC(=O)OCc2ccccc2)cc1)OCc1ccccc1 (configuration not stated)",
    "Assayed Target": "HCT-116",
    "Assigned Class": "inactive"
  },
  {
    "Compound": "O=C1c2scc(-c3ccccc3)c2-n2cccc21",
    "Assayed Target": "HCT-116",
    "Assigned Class": "inactive"
  },
  {
    "Compound": "O=C(O)c1ccc(NNc2cc(=O)[nH]c(=O)[nH]2)cc1",
    "Assayed Target": "HCT-116",
    "Assigned Class": "inactive"
  },
  {
    "Compound": "COc1ccc2c(c1)CC[C@@H]1C2CC[C@]2(C)C(=O)N(N)C(=O)CC12 (some centres not stated)",
    "Assayed Target": "HCT-116",
    "Assigned Class": "inactive"
  },
  {
    "Compound": "[O-][N+]1=C(c2ccccc2)COc2ccccc21",
    "Assayed Target": "HCT-116",
    "Assigned Class": "inactive"
  },
  {
    "Compound": "CC1(C)N=c2[nH]cnc2=C(C(N)=O)N1",
    "Assayed Target": "HCT-116",
    "Assigned Class": "inactive"
  },
  {
    "Compound": "CC(C)c1cc(=O)[nH]c2cc(N)ccc12",
    "Assayed Target": "HCT-116",
    "Assigned Class": "inactive"
  },
  {
    "Compound": "CC(=O)Nc1ccc(C(=O)N2N=C(C)/C(=C/c3ccccc3O)C2=O)cc1",
    "Assayed Target": "HCT-116",
    "Assigned Class": "inactive"
  },
  {
    "Compound": "O=C(O)c1ccccc1/C=C1\\Cc2ccc3c(c2C1=O)CCCC3",
    "Assayed Target": "HCT-116",
    "Assigned Class": "inactive"
  },
  {
    "Compound": "CC(C)(C)OC(=O)NCC(=O)OCc1ccccc1",
    "Assayed Target": "HCT-116",
    "Assigned Class": "inactive"
  },
  {
    "Compound": "C=C(C)CC1(O)C(=O)C(OCC)=C1OCC (configuration not stated)",
    "Assayed Target": "HCT-116",
    "Assigned Class": "inactive"
  },
  {
    "Compound": "CCCOC(=O)c1cc(C(=CCC[C@H]2CC[C@@]3(C)[C@@H](CC[C@@H]4[C@@H]3CC[C@]3(C)[C@@H](C(C)CCCC(C)C)CC[C@@H]43)C2)c2cc(Cl)c(O)c(C(=O)OCCC)c2)cc(Cl)c1O (some centres not stated)",
    "Assayed Target": "HCT-116",
    "Assigned Class": "inactive"
  },
  {
    "Compound": "CC(C)N(C(=O)C12C3C4C5C3C1(C(=O)N(C(C)C)C(C)C)C5(C#N)C42)C(C)C (configuration not stated)",
    "Assayed Target": "HCT-116",
    "Assigned Class": "inactive"
  },
  {
    "Compound": "O=C(NC1(C(=O)NNc2nnc(-c3ccccc3)c(-c3ccccc3)n2)C(c2ccccc2)C(c2ccccc2)=NN1c1ccccc1)c1ccccc1 (configuration not stated)",
    "Assayed Target": "HCT-116",
    "Assigned Class": "inactive"
  },
  {
    "Compound": "N#C/C(=C\\c1ccccc1)c1nc(-c2cc3ccccc3oc2=O)cs1",
    "Assayed Target": "HCT-116",
    "Assigned Class": "inactive"
  },
  {
    "Compound": "COC(=O)[C@@]1(C)/C(=N/NS(=O)(=O)c2ccc(C)cc2)CCC[C@@H]1C",
    "Assayed Target": "HCT-116",
    "Assigned Class": "inactive"
  },
  {
    "Compound": "O=C(CCC(=O)Nc1ccc(Cl)c(Cl)c1)Cc1nc2ccccc2o1",
    "Assayed Target": "HCT-116",
    "Assigned Class": "inactive"
  },
  {
    "Compound": "COc1ccccc1/C=C(\\C#N)C(=O)c1ccccc1",
    "Assayed Target": "HCT-116",
    "Assigned Class": "inactive"
  },
  {
    "Compound": "COc1cc(O)c2c(=O)cc(C3(OC(C)=O)C=CC(OC4OC(CO)C(O)C(O)C4O)C=C3)oc2c1 (configuration not stated)",
    "Assayed Target": "HCT-116",
    "Assigned Class": "inactive"
  },
  {
    "Compound": "CSCCOC(=O)C(=[N+]=[N-])c1ccc([N+](=O)[O-])cc1",
    "Assayed Target": "HCT-116",
    "Assigned Class": "inactive"
  },
  {
    "Compound": "Cc1cc(C)nc(NS(=O)(=O)c2ccc(Nc3nnc(/C=C/c4c(O)ccc5ccccc45)c(=O)n3N)cc2)n1",
    "Assayed Target": "HCT-116",
    "Assigned Class": "inactive"
  }
]
